Data credit: the supplement of paper PMC4862054

# Tested on: DU-4475
# PROTOCOL: normalised response (% of control), CellTox Green; higher = less cell death (100 = DMSO, 0 = benzethonium chloride kill control)
# PARTICULARS: incubation time: 72 h
VALUE_TYPE: normalised response (%)
Your answer should be a plain number; it is taken to be in %.

# annotated cases, reported normalised response shown
>>> reading("CC(C)Cn1cnc2c(N)nc3ccccc3c21 [Imiquimod] (2500 nM)")
99.3
>>> reading("COc1cc2nccc(Oc3ccc(NC(=O)C4(C(=O)Nc5ccc(F)cc5)CC4)cc3)c2cc1OC [Cabozantinib] (100 nM)")
97.5
>>> reading("CCC(C)(C)C(=O)O[C@H]1C[C@@H](C)C=C2C=C[C@H](C)[C@H](CC[C@@H]3C[C@@H](O)CC(=O)O3)[C@H]21 [Simvastatin] (10000 nM)")
99
>>> reading("N#CCNC(=O)c1ccc(-c2ccnc(Nc3ccc(N4CCOCC4)cc3)n2)cc1 [Momelotinib] (1000 nM)")
97.7

stdin: Give normalised response for the following compound: CN(N=O)C(=O)N[C@@H](C=O)[C@@H](O)[C@H](O)[C@H](O)CO [Streptozocin] (10000 nM)
stdout: 98.1

====

# Test system: Hs578T
# PROTOCOL: normalised response (% of control), CellTiter-Glo; higher = more viable cells (100 = DMSO, 0 = benzethonium chloride kill control)
# PARTICULARS: incubation time: 72 h
Reported normalised response by item:
Value expressed in %; do not type the unit.

Below are worked cases with known answers.
>>> reading("CCCCCCCCCCCCCCCCCCOP(=O)([O-])OC1CC[N+](C)(C)CC1 [Perifosine] (2500 nM)")
96.9
>>> reading("C=C(c1ccc(C(=O)O)cc1)c1cc2c(cc1C)C(C)(C)CCC2(C)C [Bexarotene] (10000 nM)")
80.8
>>> reading("CCC1(c2ccc(N)cc2)CCC(=O)NC1=O (stereo not given) [Aminoglutethimide] (10000 nM)")
95.1
>>> reading("N#CCNC(=O)c1ccc(-c2ccnc(Nc3ccc(N4CCOCC4)cc3)n2)cc1 [Momelotinib] (10000 nM)")
41.4
>>> reading("CN(C)/N=N/c1[nH]cnc1C(N)=O [Dacarbazine] (10000 nM)")
100
>>> reading("CNCc1ccc(-c2[nH]c3cc(F)cc4c3c2CCNC4=O)cc1 [Rucaparib] (10000 nM)")
93

stdin: Quote normalised response reported for COc1cc([C@@H]2c3cc4c(cc3[C@@H](O[C@@H]3O[C@@H]5CO[C@@H](C)O[C@H]5[C@H](O)[C@H]3O)[C@H]3COC(=O)[C@H]23)OCO4)cc(OC)c1O [Etoposide] (10000 nM) please.
stdout: 67.3

stdin: Tell me its normalised response given Clc1ccc(Nc2nnc(Cc3ccncc3)c3ccccc23)cc1 [Vatalanib] (10000 nM) as the entry.
stdout: 106

stdin: Output measured normalised response for this item: Cc1ccc(-n2nc(C(C)(C)C)cc2NC(=O)Nc2ccc(OCCN3CCOCC3)c3ccccc23)cc1 [Doramapimod] (10000 nM)
stdout: 97.8

stdin: Provide one value: measured normalised response of CC1(C)NC(=O)N(c2ccc([N+](=O)[O-])c(C(F)(F)F)c2)C1=O [Nilutamide] (10000 nM)
stdout: 104
